Recorded GI50 by entry
# Tested on: SK-MEL-5 melanoma
# procedure.summary: NCI tumour cell line growth inhibition, 48 h
endpoint.name: GI50

[[record]]
test_smiles = "COc1ccc(-c2[nH]ncc2-c2cc3c(c(OC)c2)OCC(=O)N3)cc1"
endpoint_value = "0.595 µM"

[[record]]
test_smiles = "O=S(=O)(Nc1ncccn1)c1ccc(N=Nc2ccc(O)c3ncccc23)cc1"
endpoint_value = "6.85 µM"

[[record]]
test_smiles = "COc1ccc2c(c1)C(=O)c1c-2n(CCCN)c(=O)c2ccccc12"
endpoint_value = "0.0586 µM"

[[record]]
test_smiles = "COc1cccc([C@H]2CC(=O)c3cc4c(cc3N2)OCO4)c1"
endpoint_value = "0.0271 µM"

